Measured EC50, listed per entry.
Target: Short transient receptor potential channel 4 (Mus musculus, UniProt Q9QUQ5)
Sequence (Q9QUQ5 whole entry): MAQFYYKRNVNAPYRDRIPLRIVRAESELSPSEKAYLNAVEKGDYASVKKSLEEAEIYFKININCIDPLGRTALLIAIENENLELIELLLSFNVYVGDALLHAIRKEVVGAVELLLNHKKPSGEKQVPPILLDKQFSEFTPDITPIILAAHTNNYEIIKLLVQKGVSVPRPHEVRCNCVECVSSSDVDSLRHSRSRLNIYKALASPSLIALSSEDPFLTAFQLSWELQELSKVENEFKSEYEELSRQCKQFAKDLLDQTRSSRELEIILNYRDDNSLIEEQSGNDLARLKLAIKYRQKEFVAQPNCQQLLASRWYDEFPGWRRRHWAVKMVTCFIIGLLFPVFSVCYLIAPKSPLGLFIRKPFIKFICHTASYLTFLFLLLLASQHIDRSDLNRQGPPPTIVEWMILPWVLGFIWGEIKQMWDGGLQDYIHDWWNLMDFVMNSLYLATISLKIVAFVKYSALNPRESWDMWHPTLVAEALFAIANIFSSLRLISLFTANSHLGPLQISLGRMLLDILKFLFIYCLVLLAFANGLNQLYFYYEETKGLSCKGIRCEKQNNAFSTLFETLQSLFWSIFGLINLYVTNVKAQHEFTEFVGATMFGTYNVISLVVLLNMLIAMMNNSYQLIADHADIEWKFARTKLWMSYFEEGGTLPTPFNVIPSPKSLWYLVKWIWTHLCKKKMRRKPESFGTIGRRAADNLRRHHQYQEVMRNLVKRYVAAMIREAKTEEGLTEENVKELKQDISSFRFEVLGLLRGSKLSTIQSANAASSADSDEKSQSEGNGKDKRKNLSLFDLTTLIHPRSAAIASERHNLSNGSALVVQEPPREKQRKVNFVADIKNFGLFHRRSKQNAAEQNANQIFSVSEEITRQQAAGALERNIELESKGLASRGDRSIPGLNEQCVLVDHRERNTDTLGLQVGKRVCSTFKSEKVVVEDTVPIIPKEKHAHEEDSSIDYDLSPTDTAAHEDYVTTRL
Assay: mouse TRPC4 channel inhibitors, dose response, cell-based, HEK293 TRPC4/mu-opioid, Fluo-4 calcium (AID 434942);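 note: potency of inhibitors blocking the TRPC4 calcium response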
Type: functional
Activity calls are given as the source filed them.
observed_property: EC50

• Cc1ccccc1Nc1nc(NCc2ccco2)c2ccccc2n1 = 1.06 µM (active)
• c1ccc2[nH]c(CCCCc3nc4ccccc4[nH]3)nc2c1 = 2.37 µM (active)
• CN1CCN(c2ccc(NC(=O)c3ccc(-c4ccc(Cl)cc4)o3)cc2)CC1 = 0.0667 µM (active)
• CCOc1cc(/C=C2\C(=N)N3N=CSC3=NC2=O)ccc1OS(=O)(=O)c1ccccc1 = 4.73 µM (active)
• Cc1cccc(CCN(C(=O)c2snc(C(N)=O)c2N)C(C(=O)NCC2CCCO2)c2ccc(F)cc2)c1 (stereo not given) = 2.66 µM (active)

---

Measured EC50, listed per entry.
Experiment: inhibitors of intracellular T. cruzi replication, confirmation, NIH3T3 host cells, beta-gal luminescence (AID 2044);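 note: intracellular parasites grown in NIH/3T3 mouse fibroblasts as host cells; luminescent beta-galactosidase reporter signal from transgenic T. cruzi replicating inside host cells; inhibitors lower the luminescence signal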
Format: functional, cell-based
Calls of active or inactive are those of the source.
observed_property: EC50

- CN(C)S(=O)(=O)c1ccc(NC(=O)N2CCN(c3cccc(C(F)(F)F)c3)CC2)cc1: 3610 nM (active)
- O=C(N/N=C/c1ccc([N+](=O)[O-])s1)c1cccnc1: 429 nM (active)
- CC(=O)O[C@@]12CO[C@@H]1C[C@@H](O)[C@@]1(C)C(=O)[C@H](O)C3=C(C)[C@@H](OC(=O)[C@H](O)[C@@H](NC(=O)c4ccccc4)c4ccccc4)C[C@@](O)([C@@H](OC(=O)c4ccccc4)C12)C3(C)C (some centres undefined): < 100 nM (active)
- CCCCCCCNC(=O)c1cc(-c2ccncc2)nc2ccccc12: 2980 nM (active)
- COc1ccc(OC)c(CNc2ccc3c(c2)CCC3)c1: 2080 nM (active)
- Cc1cc(N2CCN(C)CC2)ccc1NC(=O)c1ccc(-c2ccc(Cl)cc2)o1: 254 nM (active)
- Cc1ccc(Cl)cc1N=C(S)N(Cc1ccccc1)Cc1cccnc1: 785 nM (active)
- CCOC(=O)CNc1nc(C(C)(C)C)nc2c1nnn2Cc1ccccc1Cl: 3110 nM (active)
- CC(Nc1nc(-c2cccnc2)nc2ccccc12)c1ccc(F)cc1 (centres undefined): 658 nM (active)
